# target.or.test.system: recombinant GST-ARTS-1 fusion protein (Homo sapiens, UniProt Q9NZ08)
# Construct: ARTS-1 extracellular domain (i.e., the ectodomain; amino acids 30–941) was PCR amplified; made in house
# Sequence (Q9NZ08 30-941): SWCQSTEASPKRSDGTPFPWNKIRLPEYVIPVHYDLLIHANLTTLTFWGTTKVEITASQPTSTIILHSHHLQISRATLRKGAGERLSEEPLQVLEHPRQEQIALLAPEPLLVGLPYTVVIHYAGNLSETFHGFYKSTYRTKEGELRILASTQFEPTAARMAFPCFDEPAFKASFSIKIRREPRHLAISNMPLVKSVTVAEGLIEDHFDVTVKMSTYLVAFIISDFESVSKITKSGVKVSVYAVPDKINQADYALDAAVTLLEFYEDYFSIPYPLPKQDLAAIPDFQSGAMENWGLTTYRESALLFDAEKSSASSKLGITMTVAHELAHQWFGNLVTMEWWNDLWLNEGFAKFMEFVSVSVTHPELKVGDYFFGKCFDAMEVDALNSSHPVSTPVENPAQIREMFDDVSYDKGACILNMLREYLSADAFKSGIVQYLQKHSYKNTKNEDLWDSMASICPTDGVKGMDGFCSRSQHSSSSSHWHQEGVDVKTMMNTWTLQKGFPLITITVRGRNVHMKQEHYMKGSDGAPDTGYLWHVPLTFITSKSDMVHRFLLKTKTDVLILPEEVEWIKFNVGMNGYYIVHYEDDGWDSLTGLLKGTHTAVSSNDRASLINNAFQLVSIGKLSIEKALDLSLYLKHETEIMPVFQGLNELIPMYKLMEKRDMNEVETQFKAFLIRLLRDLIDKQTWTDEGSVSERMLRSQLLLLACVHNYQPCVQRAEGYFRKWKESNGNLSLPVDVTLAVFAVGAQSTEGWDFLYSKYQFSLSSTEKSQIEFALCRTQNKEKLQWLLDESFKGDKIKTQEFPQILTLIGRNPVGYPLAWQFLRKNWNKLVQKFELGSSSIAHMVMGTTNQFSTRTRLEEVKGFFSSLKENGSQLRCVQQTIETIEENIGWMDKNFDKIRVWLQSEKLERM
# assay.comment: ARTS-1 aminopeptidase activity assay (amide bond hydrolysis of amino acid p-nitroanilide substrates, absorbance at 380 nm)
# Type: biochemical
# experimental.setup: aa-pNA substrate with GST-ARTS-1; Lineweaver-Burk
# label = fulfilled if Km < 6 mM else not fulfilled

Example entries begin here.
[[record]]
substance_smiles = "O=C(Nc1ccc([N+](=O)[O-])cc1)[C@@H]1CCCN1"
cat = "fulfilled"

[[record]]
substance_smiles = "CC(C)C[C@H](N)C(=O)Nc1ccc([N+](=O)[O-])cc1"
cat = "fulfilled"

[[record]]
substance_smiles = "CC(C)[C@H](N)C(=O)Nc1ccc([N+](=O)[O-])cc1"
cat = "fulfilled"

[[record]]
substance_smiles = "C[C@H](N)C(=O)Nc1ccc([N+](=O)[O-])cc1"
cat = "not fulfilled"

[[record]]
substance_smiles = "N[C@@H](CS)C(=O)Nc1ccc([N+](=O)[O-])cc1"
cat = "fulfilled"


Consider the additional molecule presented here.
input: Strictly below 6 mM in Km? `CSCC[C@H](N)C(=O)Nc1ccc([N+](=O)[O-])cc1`
output: not fulfilled
